System: 439559-082-T-J2-PDC spheroid viability;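 also: spheroids exposed to compounds for seven days before readout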
experiment summary: Anticancer human tumor 439559-082-T-J2-PDC patient-derived colon adenocarcinoma cell line growth inhibition [POLQ]
experimental setup: second compound 3.16 µM; first compound 1 µM; stronger effect = lower value; spheroids with HUVEC and MSC
Procedure: Multicellular complex tumor spheroid response to Polymerase (POL) inhibitors (novobiocin, ART-558, RP6685) in combination with a variety of drugs and investigational agents in selected tumor cell lines The POL inhibitors (novobiocin, ART-558, and RP6685) were evaluated both individually and in combination with standard of care and investigational anticancer small molecules within a complex spheroid model of solid tumors. . […]
// classify: if (viability, T/C < 50%) TRUE else FALSE

compound	category label
CCc1cc2c(N3CCc4c(cc(Cn5ccnc5)cc4-c4cn(C)nc4C(F)(F)F)C3=O)cc(C)nc2c(OC)n1 + COC1C(OC(N)=O)C(O)C(Oc2ccc3c(O)c(NC(=O)c4ccc(O)c(CC=C(C)C)c4)c(=O)oc3c2C)OC1(C)C	FALSE
CC1COCCN1c1cc(-c2ccnn2C)c2ccnc(-c3ccn[nH]3)c2n1 (stereo not given) + COC1C(OC(N)=O)C(O)C(Oc2ccc3c(O)c(NC(=O)c4ccc(O)c(CC=C(C)C)c4)c(=O)oc3c2C)OC1(C)C	TRUE
CC1COCCN1c1cc(-c2ccnn2C)c2ccnc(-c3ccn[nH]3)c2n1 (stereo not given) + Cc1cccc(N(C)C(=O)C2C(O)CCN2c2nc(C)cc(C(F)(F)F)c2C#N)c1	TRUE
CC(C)n1c(=O)n(C)c2cnc3cc(F)c(-c4ccc(OCCCN5CCCCC5)nc4)cc3c21 + COC1C(OC(N)=O)C(O)C(Oc2ccc3c(O)c(NC(=O)c4ccc(O)c(CC=C(C)C)c4)c(=O)oc3c2C)OC1(C)C	FALSE
COc1cccc2c1C(=O)c1c(O)c3c(c(O)c1C2=O)CC(O)(C(=O)CO)CC3OC1CC(N)C(O)C(C)O1 (stereo not given) + Nc1ccc(C#CCN(C(=O)Cc2ncc(C(F)(F)F)cc2C(F)(F)F)c2ccc(F)cc2)nn1	FALSE

Data credit: PubChem BioAssay AID1963841
